assay: Oral pharmacokinetic study in male rats (oral gavage); type: in vivo, rat; conditions: male, CD, rat, in vivo, po, 10 mg/kg, 10 mg/kg (free base equivalents), 1% Poloxamer 407
assay.metric: AUC(0-t) (ng·h/mL)
Answer with a number only, understood to be in ng·h/mL.

Given Cc1c(CN(C)C(=O)/C=C/c2cnc3c(c2)CCC(=O)N3)oc2ccccc12.Cc1ccc(S(=O)(=O)O)cc1.O [Tosylate monohydrate milled] , state its recorded AUC(0-t).
2660

###

assay: Pharmacokinetic study in male rats, single oral dose in 80% PEG400; conditions: rat, in vivo, single oral dose 30 mg/kg in 80% PEG400, particle state Unmilled
assay.metric: AUC(0-t) (ng·h/mL)
Write down the numeric answer in ng·h/mL and omit the unit.

Any idea what AUC(0-t) was measured for Cc1c(CN(C)C(=O)/C=C/c2cnc3c(c2)CCC(=O)N3)oc2ccccc12.O=S(=O)(O)O [Sulfate] ?
9480

###

assay: Oral pharmacokinetic study in male rats (oral gavage); assay type: in vivo, rat; settings: male, CD, rat, plasma, po, 30 mg/kg, 30 mg/kg (free base equivalents), 0.5% CMC
assay.metric: AUC(0-t) (ng·h/mL)
Just the number please, in ng·h/mL, no unit attached.

If you can, please state the reported AUC(0-t) value of Cc1c(CN(C)C(=O)/C=C/c2cnc3c(c2)CCC(=O)N3)oc2ccccc12 [Free base] .
1620

###

assay: Oral pharmacokinetic study in male rats (oral gavage); format: in vivo, rat; settings: male, CD, rat, in vivo, po, 75 mg/kg, 75 mg/kg (free base equivalents), 0.5% CMC
assay.metric: AUC(0-t) (ng·h/mL)
Expressed in ng·h/mL, but write only the number.

What value of measured AUC(0-t) is listed for Cc1c(CN(C)C(=O)/C=C/c2cnc3c(c2)CCC(=O)N3)oc2ccccc12.Cc1ccc(S(=O)(=O)O)cc1.O [Tosylate monohydrate milled] ?
4260

###

assay: Oral pharmacokinetic study in male rats (oral gavage); format: in vivo, rat; conditions: male, CD, rat, plasma, po, 10 mg/kg, 10 mg/kg (free base equivalents), 0.5% CMC
assay.metric: AUC(0-t) (ng·h/mL)
Kindly provide the numeric value in ng·h/mL only, without the unit symbol.

Which measured AUC(0-t) value corresponds to Cc1c(CN(C)C(=O)/C=C/c2cnc3c(c2)CCC(=O)N3)oc2ccccc12 [Free base] ?
980

###

assay: Oral pharmacokinetic study in male rats (oral gavage); type: in vivo, rat; settings: male, CD, rat, plasma, po, 30 mg/kg, 30 mg/kg (free base equivalents), 0.5% CMC
assay.metric: Cmax (ng/mL)
Entry rule: numbers only, all in ng/mL.

// returns reported Cmax for input Cc1c(CN(C)C(=O)/C=C/c2cnc3c(c2)CCC(=O)N3)oc2ccccc12 [Free base]
176

Recorded values, source patent US8263613B2.
